# credit: paper PMC7746742

# Tested on: iNOS
# PROTOCOL_SUMMARY: iNOS inhibition assay (LPS-induced NO production, Griess reaction)
# Assay type: cell-based, murine
# EXPERIMENTAL_PARAMETERS: Mus musculus; RAW264.7 cells, 0–1000 nM rexinoids, LPS 1 ng/ml 24 h, NO by Griess assay; mean ± SE of 3 experiments; read-out: iNOS suppression IC50
READOUT_LABEL: IC50 (nM)

[[record]]
compound = "CCN(c1ccc(C(=O)O)cc1)c1cc(C(C)C)c(OCC(C)C)cc1C [MSU-41845]"
readout_label = "IC50"
reported_value = 338

[[record]]
compound = "CCN(c1ccc(C(=O)O)cc1)c1cc(C(C)(C)C)c(OC)c(C(C)(C)C)c1 [MSU-41846]"
readout_label = "IC50"
reported_value = 347

[[record]]
compound = "C=C(c1ccc(C(=O)O)cc1)c1cc(C(C)C)c(OCC)cc1C [MSU-41408]"
readout_label = "IC50"
reported_value = 300

[[record]]
compound = "CCN(c1ccc(C(=O)O)cn1)c1cc(C(C)(C)C)ccc1C [MSU-41583]"
readout_label = "IC50"
reported_value = 290

[[record]]
compound = "CCN(c1ccc(C(=O)O)cc1)c1cc(C(C)(C)C)cc(C(C)(C)C)c1 [MSU-41402]"
readout_label = "IC50"
reported_value = 343


[a] CC(C)(C)c1cc(-n2c(C(F)(F)F)nc3cc(C(=O)O)ccc32)cc(C(C)(C)C)c1 [MSU-41567]
[b] C=C(c1ccc(C(=O)O)cc1)c1cc2c(cc1C)C(C)(C)CCC2(C)C [Bexarotene]
[c] CCN(c1cc(C(F)(F)F)cc(C(F)(F)F)c1)c1ccc(C(=O)O)cn1 [MSU-41844]
Order these by IC50, descending, and give the full ranking. I'd appreciate it if you listed the labels in the requested order.
c, a, b

[A] C=C(c1ccc(C(=O)O)cc1)c1cc(C(C)(C)C)cc(C(C)(C)C)c1 [MSU-41566]
[B] CCOc1c(N(CC)c2ccc(C(=O)O)cc2)cc(C(C)(C)C)cc1C(C)(C)C [MSU-41565]
Name the one with the greater IC50 value, either A or B as given. Answer by stating the label of the chosen item.
B

---

# Tested on: iNOS
# PROTOCOL_SUMMARY: iNOS inhibition assay (LPS-induced NO production, Griess reaction)
# Format: cell-based, murine
# EXPERIMENTAL_PARAMETERS: Mus musculus; RAW264.7 cells, 0–1000 nM rexinoids, LPS 1 ng/ml 24 h, NO by Griess assay; mean ± SE of 3 experiments; read-out: iNOS suppression IC50
READOUT_LABEL: IC50 (nM)

[[record]]
line_notation = "CC(C)(C)c1cc(N(CC2CC2)c2ccc(C(=O)O)cn2)cc(C(C)(C)C)c1"
target_of_assay = "iNOS"
readout_label = "IC50"
scale_unit = "nM"
reported_value = 274

[[record]]
line_notation = "C=C(c1ccc(C(=O)O)cc1)c1cc(C(C)C)c(OCC(C)C)cc1C"
target_of_assay = "iNOS"
readout_label = "IC50"
scale_unit = "nM"
reported_value = 252

[[record]]
line_notation = "CCN(c1cc(C(C)(C)C)cc(C(C)(C)C)c1)c1ncc(C(=O)O)cn1"
target_of_assay = "iNOS"
readout_label = "IC50"
scale_unit = "nM"
reported_value = 295

[[record]]
line_notation = "C=C(c1ccc(C(=O)O)cc1)c1cc2c(cc1C)CCCC2(C)C"
target_of_assay = "iNOS"
readout_label = "IC50"
scale_unit = "nM"
reported_value = 340

[[record]]
line_notation = "C=C(c1ccc(C(=O)O)cc1)c1cc(C(C)(C)C)ccc1OCC"
target_of_assay = "iNOS"
readout_label = "IC50"
scale_unit = "nM"
reported_value = 331

[[record]]
line_notation = "C=C(c1ccc(C(=O)O)cc1)c1ccc(OCC(C)C)c(C(C)C)c1"
target_of_assay = "iNOS"
readout_label = "IC50"
scale_unit = "nM"
reported_value = 267

